Exercise: for every item that follows, state its recorded pEC50.
system: Hepatitis C virus; test: Antiviral activity against Hepatitis C virus genotype 1a expressing neomycin phosphotransferase after 3 days by luciferase reporter gene assay; assay type: functional, organism-based, Hepacivirus hominis; details: subtype 1a, 72 h
Value format note: pEC50 is -log10 of concentration (mol/L); just state the number.

Incoming: # lookup: Hepatitis C virus pEC50, key = COC(=O)N[C@H](C(=O)N1CCC[C@H]1c1nc2cc(-c3ccc4cc(-c5cnc([C@@H]6C[C@H]7C[C@H]7N6C(=O)[C@@H](NC(=O)OC)C(C)C)[nH]5)ccc4c3)ccc2c(=O)[nH]1)C(C)C
Outgoing: 11.22

Incoming: # return pEC50 of COC(=O)N[C@H](C(=O)N1CCC[C@H]1c1ncc(-c2ccc3cc(-c4ccc5c(=O)[nH]c([C@@H]6C[C@@H]7CCCC[C@@H]7N6C(=O)[C@@H](NC(=O)OC)C(C)C)nc5c4)ccc3c2)[nH]1)C(C)C (system: Hepatitis C virus)
Outgoing: 11.22

Incoming: Please look at COC(=O)N[C@H](C(=O)N1CC2(C[C@H]1c1nc3cc(-c4ccc5cc(-c6cnc([C@@H]7C[C@H]8C[C@H]8N7C(=O)[C@@H](NC(=O)OC)C(C)C)[nH]6)ccc5c4)ccc3c(=O)[nH]1)OCCCO2)C(C)C and tell me its recorded pEC50 on Hepatitis C virus.
Outgoing: 10.59

Incoming: Using Hepatitis C virus as the test system, report measured pEC50 of COC(=O)N[C@H](C(=O)N1CC2(C[C@H]1c1ncc(-c3ccc4cc(-c5ccc6c(=O)[nH]c([C@@H]7C[C@H]8C[C@H]8N7C(=O)[C@@H](NC(=O)OC)C(C)C)nc6c5)ccc4c3)[nH]1)OCCO2)C(C)C .
Outgoing: 11.10
